- testProtocol: protease stability score; higher = more stable; yeast display proteolysis, trypsin and chymotrypsin;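 note: relative to predicted unfolded state with 0 unfolded-like and 1 meaning tenfold more protease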
Kindly state protease stability score for each of the entries shown.
Answers are plain numbers.

# annotated cases, reported protease stability score shown
[[record]]
seqtext = "SDDERMLHLLIKILIRAIQTGDEDTLLRQVDPHVRIDIDGRDIVGREDLIEFAKHWRFELREVNIRHMEIYGEYIHAEVEVRGKIIIGDKEVETTVDTRHIILKINGRWFFHSISVK"
observedmeasurement = 1.26

[[record]]
seqtext = "DSVEELAKRSVELLLRLLKTGDEEEISRLADPDTRLVIGEFEFHGMEKVEHSWRKMGFTIHEWRIHDVEVQGDKLIVHVHQNIEFNGVHEEFRSIIIARKINGRWRLKSLHWK"
observedmeasurement = 1.67

[[record]]
seqtext = "DESEHAAKHVSELFRELVDTGDEKFHEEFADPNVRLDYGDKHYHGREIQLRIFREWRIHHIEDKDVEVQGDKIFVDGRLDGTVDGRRQHYKIILIWRKVNGRWLSTQIRFH"
observedmeasurement = 1.59

[[record]]
seqtext = "DEQEKFSKEMARLFIELRLTGDWETFTHLADPDVLWEIHVDGQSERNIGWESVRHAMEKERHELRIEHIHIRDVKIQGNKIHINTEVVGQFNGRRFIVDSRIHIHIVNGRIKDVTIEIE"
observedmeasurement = 1.16

[[record]]
seqtext = "DESTRDFRQFFKLLVEHFKTGDWRRLADLFDPNVRVEINGRELHGRENIALWLRDRFKHLGVDHVHMRIRDLEVQGDKIRIHVELEIRVGDKVFYHETVLVIEKFDGRWIVHEEEYK"
observedmeasurement = 1.49


Go through the items and report each one's protease stability score.
1. DERHDDSRDLAHIFLHLLHTGDEDTIQEYLDPNAKYTLNINGVRVIMHGRETITRHWKEWLDKFKNATIHINDSTVQGDKVHNHTSMEINGQTHNTWIVVVVFNGKVRMIIVDVI
2. THEWREAREMIEVFLERIETGDEESLERLLDPHVRVHINGKDFHGRDEAIRKLIEMRHHSIHLKHINVQGDKVHNFGEWIVDFDGKKHTHKMILYISKVNGRWLIDSIHVE
3. EEESKVASDIIELHMRFLLTGNWEMFLRLADPHVRIETEDHRDHGRDWYEKLFRHIRSHVEDMRIKHVELQGDKLHAHGSVRLLIVDGDKYIEVEVDFRFIFDKVNGKWILSSIHLK
4. DDVERIVKHMLELHIQSWLTGNEHLMHRLADPNVRSHIGDKERVGRHELSEMMIKHWEHLRIHRVEIRDSDVVGEKAESNTHVVVIFNGVEVRFDVRIEVVSINGRLHSSHIIIE
5. DEYREEARKLMHDTAKHLHTGDEDMTNHYLDPNVKIQINGQEIHGMDKFEHDSRRFKGAKNDVRFELRLIQVIGDKVRIDGELYVRIRVGDKEYSFEVKVDIVVTKVDGVWKIKEIKIE
6. DESTENLREFIRVLLHLWETGNEDEFLRMADPNALVYDEHEYDHGWKAWKKLLEQYDVVTSIIPRHIRLIGDKVDIHTNLYMLINGRTVEVHTELLVKKIDGQWRIKFFLIR

[1.29, 0.98, 2.29, -0.029, 0.806, 1.63]

Go through the items and report each one's protease stability score.
1. DHWEELIERALDFHRSLLRTGDPEVLERQADPNAKFVVGDKTLHGRESVSDWMNRVKNIQIHMRDLHVIDGKIEMHVQMHYDGRTSHTRLIADKVDGRWIYRSVSVE
2. DEEEEWARYILKKTMEAWLTGDEEIIRELLDPSTRLVIDGKEFHGMDEAQFLVREIRIDRIRTDMHDVKFQGDWIHVDGHIRVDETVNGRRRHKENRINIIVLKIDGRWYLHRYIIG
3. DESTEVLERIMKDFLDELRTGDWEKFMELADPNVRLHFNGVTNHGREEVTRYFREHLARFDHYEIENHRVTLVGDKLHLDVILRVHQGDKFREYKVEIRVVVYDGKIKEVHIIIR
4. DEEKEEIRQFEETFVEAMKTGDEDVIRHLLDPHVRVDINGQTFHGREIVIEMVSRFPNVQVHIDDLDVQGNWAHSDVQLHQGDKYIRLHIDVTKIDGKWRITFLKFK
5. SEDEHRAREVVHIFNEAIDTGDFQSLMDMMDPNVRLIFENHHTIGREEALKVINRFDHVRNHHVRWRHVHHVNGRIIDHTEVDIVIHINGQIIRETTERDITIEKVNGRWLIHQIEIR
6. SEDEEDMTHAIEEIEHFWMTGDWKKMHDLADPHVKTIINGREQHGRRHMIEAIKDSRRRLGVNYIHSVSNKHFDLQGNKVHSDIRIDVDVNGKHIDLELEVDIVKVDGKWQLSHLKIV
7. SEEEEILRRSVEVTLEAFKTGNERILREYLDPHVRFLYNGQEYHGWKDFVRFLINEVRRFDHVEIRLDHWEMQGEKAHFHGRLILDVNGRLEIFRVHIHLFKVDGKWTLRELRIE
8. SEEEEDVRKFVHMLMLSFITGDWKMLWEMLDPEVRLHVGDKTIIGRERFVSFMQRLLRELRIKDFHVDSIEIQGEKAIIHTTLHIVIGEKEEDRYVRYIVIKIDGRWLIHRVHIH

0.69
2.35
2.44
1.45
1.14
0.931
1.83
2.74

src = the NTF2 design screens of Basanta et al. (2020)
